Listing of entries alongside the reported Kd.
targetDesc: HLA-A*11:01
experimentDescription: IEDB peptide-MHC binding, purified MHC/direct/fluorescence; filed as Kd, often an IC50 or EC50 that approximates it; bounds were set here for any values at or beyond the usual limits of such assays
conditionSet: source organism: Giardia lamblia ATCC 50803
valueKind: Kd

orderedResidues | targetDesc | experimentalResult
DSPATLSAY | HLA-A*11:01 | ≥ 20 µM
QHTRRVSVL | HLA-A*11:01 | ≥ 20 µM
APDGFYPFK | HLA-A*11:01 | 0.248 µM

###

targetDesc: HLA-A*02:03
experimentDescription: IEDB peptide-MHC binding, purified MHC/direct/fluorescence; filed as Kd, often an IC50 or EC50 that approximates it; bounds were set here for any values at or beyond the usual limits of such assays
conditionSet: source organism: Burkholderia mallei ATCC 23344

orderedResidues | targetDesc | Kd
QHAWPLPPL | HLA-A*02:03 | ≥ 20 µM

###

targetDesc: HLA-B*46:01
experimentDescription: IEDB peptide-MHC binding, purified MHC/competitive/fluorescence; filed as Kd, often an IC50 or EC50 that approximates it; bounds were set here for any values at or beyond the usual limits of such assays
conditionSet: source organism: Rickettsia bellii RML369-C

orderedResidues | Kd
AKIALAVYK | ≥ 20 µM

###

targetDesc: HLA-B*57:01
experimentDescription: IEDB peptide-MHC binding, purified MHC/direct/fluorescence; filed as Kd, often an IC50 or EC50 that approximates it; bounds were set here for any values at or beyond the usual limits of such assays
conditionSet: source organism: Cryptosporidium parvum Iowa II

orderedResidues | targetDesc | Kd
MPMSMPIPM | HLA-B*57:01 | ≥ 20 µM
LPLESCFGV | HLA-B*57:01 | ≥ 20 µM

###

Attribute: pKd
targetDesc: HLA-B*46:01
experimentDescription: IEDB peptide-MHC binding, purified MHC/direct/fluorescence; filed as Kd, often an IC50 or EC50 that approximates it; bounds were set here for any values at or beyond the usual limits of such assays
conditionSet: source organism: Camelpox virus M-96
pKd: −log10 of the molar value.
valueKind: pKd

orderedResidues | experimentalResult
DILASIIDY | ≤ 4.70
YPAVINSNI | ≤ 4.70

###

targetDesc: HLA-A*01:01
experimentDescription: IEDB peptide-MHC binding, purified MHC/competitive/radioactivity; filed as Kd, often an IC50 or EC50 that approximates it; bounds were set here for any values at or beyond the usual limits of such assays
conditionSet: source organism: Dengue virus 4 Dominica/814669/1981
pKd: −log10 of the molar value.

orderedResidues | pKd
SIGKMFESTY | 4.77

###

targetDesc: HLA-A*03:01
experimentDescription: IEDB peptide-MHC binding, purified MHC/competitive/fluorescence; filed as Kd, often an IC50 or EC50 that approximates it; bounds were set here for any values at or beyond the usual limits of such assays
conditionSet: source organism: Orthomarburgvirus marburgense
valueKind: Kd

orderedResidues | valueKind | experimentalResult
GIADFIIFK | Kd | 188 nM

###

targetDesc: HLA-A*02:03
experimentDescription: IEDB peptide-MHC binding, purified MHC/competitive/radioactivity; filed as Kd, often an IC50 or EC50 that approximates it; bounds were set here for any values at or beyond the usual limits of such assays
conditionSet: source organism: Vaccinia virus Copenhagen
pKd: −log10 of the molar value.
valueKind: pKd

orderedResidues | valueKind | experimentalResult
VLIAGIILLI | pKd | 7.46
